Reported P.E. binding ELISA OD by item:
Target: T1, human IL-2Rβ (human, UniProt P14784 27-240, limits assumed)
T1 construct: Recombinant protein, coated (ELISA) or immobilised on CM5 (SPR); also called hu IL-2R; interleukin 2 receptor β-chain
T1 sequence: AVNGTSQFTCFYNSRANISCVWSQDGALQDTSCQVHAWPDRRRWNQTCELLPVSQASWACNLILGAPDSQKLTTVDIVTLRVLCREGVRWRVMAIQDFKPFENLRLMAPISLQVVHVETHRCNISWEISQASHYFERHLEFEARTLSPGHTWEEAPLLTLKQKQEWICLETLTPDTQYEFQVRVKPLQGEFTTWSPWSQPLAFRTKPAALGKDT
Experiment: P.E. binding ELISA on coated protein
recorded.metric: P.E. binding ELISA OD (OD450 nm)

binder	recorded.metric	unit.name	test.result
FJ1427 P035MP03C02 (VHH, soluble VHH in periplasmic extract; also called clone nr) VHH: QVQLVESGGGLVQVGDSLRLSCAASGRTVGSANMGWFRQAPGKEREFVAVITWSTGSTVYADSVKGRFTISRDNAKNTVYLDMSSLKPEDTAVYYCAADVYPYSGNLNIMDYWGKGTLVTVSS	P.E. binding ELISA OD	OD450 nm	0.828
FJ1427 P035MP03F09 (VHH, soluble VHH in periplasmic extract; also called clone nr) VHH: EVQLVESGGGLVQAGGSLTLSCAASGRAFSNYPVGWFRQAPGKEREFVAAITWLSGSTLYADSVEGRFTISRDNAKNTVYLLMSSLKPEDTALYFCAAALKTITRGQNDYSYWGQGTQVTVSS	P.E. binding ELISA OD	OD450 nm	0.621
FJ1427 P035MP02A12 (VHH, soluble VHH in periplasmic extract; also called clone nr) VHH: QVQLQESGGGLVQAGGSLRLSCAVSGRSFRNYVMGWFRQAPGREREIVAGITQFTSTTYYDDSVKGRFTISRDNAKNTVYLQMNSLKPEDTALYYCAADRSIKMTADWAYWGQGTQVTVSS	P.E. binding ELISA OD	OD450 nm	0.182
FJ1427 P035MP06C02 (VHH, soluble VHH in periplasmic extract; also called clone nr) VHH: QVQLVESGGGLVQAGGSLRLSCVVSGDVFVRYTMAWFRQAPGKEREFVAVVTDSGRTTEYVDSVKGRFTVSRDNAKNTVYLQMNNLKPEDTAVYYCAANTDYFQIRSVDNNAWGQGTQVTVSS	P.E. binding ELISA OD	OD450 nm	0.799
FJ1427_P035MP02C12 (VHH, soluble VHH in periplasmic extract; also called clone nr) VHH: EVQLVESGGGSVQAGGSLRLSCAASGRTFSDYTMGWFRQAPGKEREFVVAITGTGHTTDMPDSVEGRFTISRDNAKNTIYLDMKNLKPGDTAVYYCASARGLPVTPLGDIIYWGEGTLVTVSS	P.E. binding ELISA OD	OD450 nm	0.616
FJ1427 P035MP03A03 (VHH, soluble VHH in periplasmic extract; also called clone nr) VHH: EVQLVESGGGSVQTGGSLRLSCVVSGSHFISDVMGWYRQVPGKQRELVADMADGGSVKYGDSVKGRFTILRDSVKNTVTLQMSSLNPEDTGVYYCKAGLWITGRHFDYWGQGTQVTVTS	P.E. binding ELISA OD	OD450 nm	0.296
FJ1427_P035MP06B02 (VHH, soluble VHH in periplasmic extract; also called clone nr; 490) VHH: QVQLVESGGGLVQAGGSLRLSCVVSGDVFVRYTMAWFRQAPGKEREFVAAVTDSGRTTEYVDSVKGRFTVSRDNAKNTVYLQMNNLKPEDTAVYYCAANTDYFQIRSVDNNAWGQGTQVTVSS	P.E. binding ELISA OD	OD450 nm	0.435
FJ1427_P035MP03G10 (VHH, soluble VHH in periplasmic extract; also called clone nr) VHH: QVQLVESGGGLVQAGGSLRLSCAASGRSYAMGWFRQAPGKEREFVAAISWSASSTYYSESVKGRFTISRENAKNTVYLQMNSLKPEDTAVYYCAVRASPFVAGSYDPSDDPADYGSWGQGTQVIVSS	P.E. binding ELISA OD	OD450 nm	0.26
